Test system: TK-10 renal
Test: NCI tumour cell line growth inhibition, 48 h
result_type: GI50

Consider the worked cases shown below.
COc1ccc(-c2ccc(-c3ccc(C(=N)N)cn3)o2)cc1Cl: 3.19 µM
COc1cccc(CCC(=O)c2cc3c(N)c(C(=O)Nc4cccc(Cl)c4C)sc3nc2C)c1: 6.46 µM
Cc1ccc2nc(-c3ccc(N)c4ccccc34)[nH]c2c1: 0.878 µM

Challenge: What measured GI50 is associated with O=S(=O)(NC1=NCCN1C(=S)SN1CCn2c1nsc2=S)c1ccccc1Cl on TK-10 renal?
Response given: 16.3 µM

Challenge: Please answer likewise for C=C(CNC(=O)c1ccccc1)c1ccc(C(=O)Nc2ccccc2N)cc1
Response given: 2.12 µM

Challenge: Please answer likewise for Cc1ncc(C(=O)Nc2ccc(CN3CCN(C)CC3)c(C(F)(F)F)c2)cc1C#Cc1c(N)ncc2ccccc12
Response given: 0.623 µM

Challenge: Please answer likewise for COc1cc(C2CC(=O)Nc3c2ccc2ccccc32)cc(Br)c1OC (stereo not drawn)
Response given: 13.4 µM

Challenge: Please answer likewise for O=c1oc2c3ccc4cnccc4c3[nH]c2c2ccccc12
Response given: 43.8 µM

* * *

Test system: RXF 393 renal
Assay: NCI tumour cell line growth inhibition, 48 h
The compounds listed here are annotated with their TGI.
Numbers only; they are read as µM.

Consider the worked cases shown below.
CCN(CC)CCOc1ccc(C(O)(Cc2ccc(OC)cc2)c2ccccc2)cc1 (centres undefined): 30.4
COc1cc(NC(=O)NCc2ccco2)ccc1-c1ccc(NC(=O)NCc2ccco2)cc1OC: 6.22
CCOC(=O)C1=C(Nc2ccc(Br)cc2)OC/C1=N\NC(=O)c1ccccc1O: 14.2

Challenge: What measured TGI is associated with CN(C)CCCCn1ccc2c1C(=O)c1c(c(O)c3ccccc3c1O)C2=O on RXF 393 renal?
Response given: 8.91

Challenge: Please answer likewise for COc1cc(C2CC(=O)Nc3c2ccc2ccccc32)cc(Br)c1OC (centres undefined)
Response given: 7.05

Challenge: Please answer likewise for Nc1ccc(C(OC(=O)c2cc3ccccc3c(Cc3c(O)c(C(=O)OC(c4ccc(N)cc4)(c4ccc(N)cc4)c4ccc(N)cc4)cc4ccccc34)c2O)(c2ccc(N)cc2)c2ccc(N)cc2)cc1
Response given: 6.7

Challenge: Please answer likewise for COC(=O)[C@]12CC[C@@H](C)[C@H](C)[C@@H]1C1=CC[C@@H]3[C@@]4(C)C(C=O)=C[C@@](C)(COS(C)(=O)=O)C4[C@H](O)C[C@@]3(C)[C@]1(C)CC2 (some centres undefined)
Response given: 2.9

Challenge: Please answer likewise for O=C(CNc1ccc2c(=S)c3ccccc3[nH]c2c1)Nc1ccccc1-c1ccccc1NC(=O)CNc1ccc2c(=S)c3ccccc3[nH]c2c1
Response given: 56.6

* * *

System: CAKI-1 renal
Assay: NCI tumour cell line growth inhibition, 48 h
result_type: GI50

Nc1c(C(=O)N/N=C/c2ccc(-c3cc(Cl)c(Cl)cc3Cl)o2)cnn1-c1ccnc2c(C(F)(F)F)cccc12: 4.21 µM
CC(C)C[C@H](NC(=O)CCn1ccc2ncccc2c1=O)B(O)O: 21.6 µM
Cc1ccc(Nc2cc(C)nc(NCCCNc3ccnc4cc(Cl)ccc34)n2)cc1: 1.46 µM
Nc1nccc2c1ncn2C1OC(CO)C(O)C1O (stereo unspecified): > 100 µM
CCOc1nccc2c1nc(-c1nonc1N)n2CC: > 25 µM

Next:
Challenge: For CCN(CC)CCn1c2ccc(OC)cc2c2sc3cc(OC)ccc3c(=O)c21 , what is its reported GI50?
Response given: 1.65 µM

* * *

System: U251 CNS
The compounds listed here are annotated with their GI50.

COc1cc(F)c(/C=C/c2cc(/C=C/c3cc(OC)c(OC)cc3F)n(-c3cc(F)cc(F)c3)n2)cc1OC: 1.69 µM
CNC1=C(C(=O)OC)SC(c2ccccc2)(c2ccccc2)SC1: 34.8 µM
COc1ccc(-c2ccc(-c3ccc(C(=N)N)cn3)o2)cc1Cl: 1.79 µM
O=c1cccccc1[O-].O=c1cccccc1[O-].O=c1cccccc1[O-].[Ce+3]: 18.3 µM

Challenge: For NC(=O)c1ccccc1NC(=O)c1ccccc1Cl , what is its reported GI50?
Response given: > 100 µM

Challenge: Please answer likewise for Clc1ccc(CNc2nccc(-c3cnn4ncccc34)n2)cc1
Response given: 6.73 µM

Challenge: Please answer likewise for C=C(CNC(=O)c1ccccc1)c1ccc(C(=O)Nc2ccccc2N)cc1
Response given: 5.43 µM

Challenge: Please answer likewise for COc1c(Cl)ccc2c(-c3nc4cc(Cl)c(F)cc4s3)cc(=O)oc12
Response given: 7.57 µM

Challenge: Please answer likewise for CCNNC(=O)[C@@H]1[C@H](c2cc(OC)c(OC)c(OC)c2)c2cc3c(cc2[C@H](O)[C@H]1CO)OCO3
Response given: 0.321 µM

Challenge: Please answer likewise for NCCCN1CCN(CCCNc2nc3ccccc3c3[nH]c4ccccc4c23)CC1
Response given: 0.373 µM

Challenge: Please answer likewise for O=C(COc1cccc(/C=C2\Oc3ccc4ccccc4c3C2=O)c1)c1ccc(Cl)cc1
Response given: 27.2 µM

Challenge: Please answer likewise for Cc1ccc2nc(-c3ccc(N)c4ccccc34)[nH]c2c1
Response given: 0.0619 µM

* * *

Test system: IGROV1 ovarian
Assay: NCI tumour cell line growth inhibition, 48 h
The molecules listed here are annotated with their TGI.
Numbers only; they are read as µM.

CC1=CCC[C@H]2[C@](C)(CC3=CC(=O)C(Sc4ccccc4)=CC3=O)[C@@H](C)CC[C@]12C: 30.4

Next:
Challenge: For CCOc1ccc(/C=C2\NC(=S)N(/C=C3\C(=O)Oc4ccccc4C3=O)C2=O)cc1 , what is its reported TGI?
Response given: 61.7

* * *

Tested on: UO-31 renal
Test: NCI tumour cell line growth inhibition, 48 h; in the data active means GI50 below about 0.43 µM; inactive means the rest
Give your call using only these classes: 1 (yes) for active, 0 (no) for inactive

Solved entries:
Cc1cc(N(CCCNc2ccnc3cc(Cl)ccc23)Cc2ccc3c(c2)OCO3)nc(N2CCCCC2)n1: 0 (no)
Clc1ccc(CNc2nccc(-c3cnn4ncccc34)n2)cc1: 0 (no)
CCCCCCCCCCCCCCCCCCOc1ccccc1CC(=O)NCC[N+](C)(C)C: 0 (no)
COc1cc(NC(=O)NCc2ccco2)ccc1-c1ccc(NC(=O)NCc2ccco2)cc1OC: 0 (no)
O=c1oc2c3ccc4cnccc4c3[nH]c2c2ccccc12: 0 (no)

Challenge: I would be grateful if you could indicate the recorded call for COc1cc(C2CC(=O)Nc3c2ccc2ccccc32)cc(Br)c1OC (centres undefined) .
Response given: 0 (no)

Challenge: Please answer likewise for Cc1nc2c(N3CCCC3)nc(N3CCNCC3)nc2nc1NCc1ccccc1
Response given: 0 (no)

Challenge: Please answer likewise for COc1ccc(Cn2cc3c(c2-c2cc(OC)c(OC)c(OC)c2)CCc2cnoc2-3)cc1N
Response given: 1 (yes)

* * *

System: SF-268 CNS
Assay: NCI tumour cell line growth inhibition, 48 h
result_type: TGI

Consider the worked cases shown below.
COC1(c2cccs2)c2ccccc2C(OC)(c2cccs2)c2ccccc21 (configuration not stated): > 100 µM
Cc1ccc2c(C(=O)c3c(C)n(CCN4CCOCC4)c4ccccc34)cccc2c1: 33.8 µM
C=Cc1nc(C#N)c(N)o1: > 100 µM
Cc1cc2oc(C)c(S(=O)(=O)NC(=O)Nc3ccc(Cl)cc3)c(=O)c2c(=O)o1: > 100 µM

Challenge: For C=C1CCCC2[C@](C)(CC3=C(O)C(=O)C=C(OC)C3=O)[C@@H](C)CC[C@]12C (some centres not stated) , what is its reported TGI?
Response given: > 100 µM

* * *

Tested on: HL-60(TB) leukemia
Assay: NCI tumour cell line growth inhibition, 48 h
The compounds listed here are annotated with their TGI.
Numbers only; they are read as µM.

Consider the worked cases shown below.
COc1ccc(-c2ccc(-c3ccc(C(=N)N)cn3)o2)cc1Cl: 5.36
O=C(N/N=C/c1ccc(Cl)cc1Cl)c1ccc2nc(-c3ccc(Cl)cc3)[nH]c2c1: 6.53
CCN(CC)c1ccc(N=C2C=C(Cl)C(=O)c3ncccc32)c(C)c1: 4.72

Challenge: For COc1cc(C2CC(=O)Nc3c2ccc2ccccc32)cc(Br)c1OC (stereo not given) , what is its reported TGI?
Response given: 0.462

Challenge: Please answer likewise for Cc1ccc(Nc2cc(C)nc(NCCCNc3ccnc4cc(Cl)ccc34)n2)cc1
Response given: 4.81

Challenge: Please answer likewise for Cc1ncc(C(=O)Nc2ccc(CN3CCN(C)CC3)c(C(F)(F)F)c2)cc1C#Cc1c(N)ncc2ccccc12
Response given: 0.817

* * *

Tested on: DLD-1 colon
Assay: NCI tumour cell line growth inhibition, 48 h
result_type: TGI

CCOC(=O)C(C)(C)Oc1ccc2c(-c3ccc(Cl)cc3)c(-c3ccc(Cl)cc3)c(=O)oc2c1: > 100 µM
COc1nc2c(nc(N)n2C2OCC(O)C(O)C2O)c(=O)n1C (stereo not given): > 100 µM
CC(C)C(=O)[O-].CC(C)C(=O)[O-].N.N.N.N.[Co+3].[O-][Cl+3]([O-])([O-])[O-]: > 100 µM
CCn1c(=O)c2ccccc2n2c(=O)c3cc4ccccc4cc3nc12: > 100 µM
Cc1ccccc1C(=O)Oc1ccc(OCc2ccccc2)cc1: > 100 µM

Challenge: For C=C1CCCC2[C@](C)(CC3=C(O)C(=O)C=C(OC)C3=O)[C@@H](C)CC[C@]12C (stereo not given in full) , what is its reported TGI?
Response given: 69.1 µM

Challenge: Please answer likewise for COc1cccc(-c2nccc3c(OCc4ccccc4)c(OC)c(OC)cc23)c1
Response given: > 100 µM

Challenge: Please answer likewise for OCC(O)C(O)C(O)c1nn(-c2ccccc2)c2nc3cc(Cl)c(Cl)cc3nc12 (stereo not given)
Response given: > 100 µM

Challenge: Please answer likewise for CCN(CC)CCOc1ccc(C(O)(Cc2ccc(OC)cc2)c2ccccc2)cc1 (stereo not given)
Response given: 72.3 µM

Challenge: Please answer likewise for COc1cc(/C=C\c2ccc(Br)cc2)cc(OC)c1OC
Response given: > 100 µM
